# Assay system: T1, HIS-tagged B Lymphocyte Stimulator (human, UniProt Q9Y275 71-285)
# T1 construct: Expressed in E. coli from pQE9 and purified; also called histidine-tagged B Lymphocyte Stimulator; HIS-B Lymphocyte Stimulator; not shown: histidine tag of the pQE9 vector
# T1 sequence (Q9Y275 71-285): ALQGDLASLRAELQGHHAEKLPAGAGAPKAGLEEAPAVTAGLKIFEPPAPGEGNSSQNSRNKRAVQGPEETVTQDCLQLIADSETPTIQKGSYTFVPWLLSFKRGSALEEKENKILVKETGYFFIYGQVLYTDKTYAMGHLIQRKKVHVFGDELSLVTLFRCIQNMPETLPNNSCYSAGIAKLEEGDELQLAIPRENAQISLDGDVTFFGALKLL
# Protocol summary: BIAcore, periplasmic scFv on high density HIS-BLyS surface
Measurement type: binding result

Check out these entries, answers already filled in.
# Binder, binding result
measured = [
    ("I080G09 (scFv) scFv: QVQLVQSGAEVKKPGASVRVSCKSSGYTFTNYGISWVRQAPGQGLEWMGWISNNNGKTYYAQKVQGRVTMTTDTSTSTDYMELRGLRSDDTAIYYCARDNGGGTIGFDYWGQGTLVTVSSGGGGSGGGGSGGGGSAQSVLTQPPSVSGAPGQRVTISCTGSSSNIGADYDVHWYQLLPGTAPKLLIYGNTNRPSGVPDRFSGSKSGTSASLTIAGLQAEDEADYYCQSYDSSLSGSVVFGGGTKLTVLG", "binds"),
    ("I079F06 (scFv) scFv: QVQLVESGGGLVQPGGSLRLSCAASGFTFSSYWMSWVRQAPGKGLEWVANIKQDGSEKYYVDSVKGRFTISRDNAKNSLYLQMNSLRAEDTAVYYCARDNLHAAFDIWGRGTLVTVSGGGGGSGGGGSGGGGSDIQMTQSPSTLSASIGDRVTITCRASEGIYHWLAWYQQKPGKAPKLLIYKASSLASGAPSRFSGSGSGTDFTLTISSLQPDDFATYYCQQYSNYPLTFGGGTKLEIKR", "binds"),
    ("I082B08 (scFv) scFv: QVQLVQSGAEVKKPGGSVKVSCKASAYTFTRYYMHWVRQAPGQGLEWMGIINPSGGRTSYAQKFQGRVTMTRDTSTSTVYMELSSLRSEDTAVYYCARDLGIAGTIYFDYWGKGTLVTVSSGGGGSGGGGSGGGGSQSVLTQPPSVSAAPGQKVTISCSGSTSNIGNNYVSWYQQHPGKAPKLMIYDVSKRPSGVPDRFSGSKSGNSASLDISGLQSEDEADYYCAAWDDSLSEFLFGTGTKLTVLG", "binds"),
    ("I080A08 (scFv) scFv: QVTLKESGGDLVQPGGSLRLSCAASGLTFMSYAMTWVRQAPGKGLEWVSSISGSGDNTYYGDSVRGRFTISRDNSKNTLFLQLNSLRAEDTAFYYCAKVHSTGYAFENWGRGTLVTVSSGGGGSGGGGSGGGGSAQSVLTQPPSVSGAPGQRVTISCTGSSSNIGAGYNVHWYQQLPGTAPRLLISSNTNRPSGVPDRFSGSKSGTSASLAITGLQAEDEADYYCQSYDSSLSGFVFGTGTKVTVLG", "binds"),
]

Below: the item to evaluate.
Query: Please look at this binder and report its binding result: I084A01 (scFv) scFv: QVQLVQSGGGLVQPGGSLRLSCAASGFTFSSYEMNWVRQAPGKGLEWVSYISSSGSTTYYADSVKGRFTISRDNAKNSLYLQMNSLRAEDTAVYYCARDTTDYWGQGTMVTVSSGGGGSGGGGSGGGGSQSVLTQPPSASGTPGQRVTISCSGSSSNIGSNTVNWYQRLPGAAPQLLIYNNDQRPSGIPDRFSGSKSGTSGSLVISGLQSEDEADYYCASWDDSLNGRVFGGGTKLTVLG
Result: binds
